# tested_on: CDK4/CyclinD1 (Homo sapiens, UniProt P11802)
# Construct: purchased Thermofisher PR8064A
# Sequence (P11802 whole entry): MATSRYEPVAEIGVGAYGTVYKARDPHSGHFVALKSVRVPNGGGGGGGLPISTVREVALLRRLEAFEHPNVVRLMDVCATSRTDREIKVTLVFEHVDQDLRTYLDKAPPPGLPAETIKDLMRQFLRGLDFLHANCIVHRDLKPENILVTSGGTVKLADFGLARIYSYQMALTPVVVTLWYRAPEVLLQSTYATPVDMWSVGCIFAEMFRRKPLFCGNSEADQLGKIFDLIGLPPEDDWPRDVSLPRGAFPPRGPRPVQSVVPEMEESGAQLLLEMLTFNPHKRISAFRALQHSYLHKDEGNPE
# Sequence (P24385 whole entry partner): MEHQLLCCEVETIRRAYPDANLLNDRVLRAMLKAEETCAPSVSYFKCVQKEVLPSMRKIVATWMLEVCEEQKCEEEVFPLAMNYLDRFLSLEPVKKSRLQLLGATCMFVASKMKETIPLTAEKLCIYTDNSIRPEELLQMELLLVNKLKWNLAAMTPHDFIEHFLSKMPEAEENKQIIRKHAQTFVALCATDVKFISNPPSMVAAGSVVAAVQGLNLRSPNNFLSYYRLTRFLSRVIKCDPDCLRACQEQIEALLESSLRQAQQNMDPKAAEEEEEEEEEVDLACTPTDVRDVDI
# test: Assay for inhibition of CDK4/CyclinD1 (Caliper microfluidic kinase assay)
# Assay type: biochemical
# measurement_parameters: CDK4/CyclinD1, 200 μM ATP
quantity_name: IC50

{"molecule": "CC(C)c1cnn2ccc(-c3nc(Nc4ccc(N5CCOCC5=O)cc4)ncc3F)cc12", "IC50": "< 10 nM"}
{"molecule": "CC(C)n1cnc2c(F)nc(-c3ccnc(Nc4ccc(N5CCOCC5=O)cn4)n3)cc21 [Synthetic Example 61]", "IC50": "< 10 nM"}
{"molecule": "CC(C)n1cnc2c(F)nc(-c3ccnc(Nc4ccc(N5CCCNC5=O)cc4)n3)cc21", "IC50": "< 10 nM"}

[ask] Print CDK4/CyclinD1 (Homo sapiens, UniProt P11802) IC50 for CCN1CCN(Cc2cccc(Nc3ncc(F)c(-c4ccn5ncc(C(C)C)c5c4)n3)n2)CC1 .
[reply] 100 to 1000 nM

[ask] Please report the measured IC50 for CC(C)c1cnn2ccc(-c3ccnc(Nc4ccn(CC5CCNCC5)n4)n3)cc12 tested on CDK4/CyclinD1 (Homo sapiens, UniProt P11802).
[reply] 10 to 100 nM

[ask] # assay system CDK4/CyclinD1 (Homo sapiens, UniProt P11802): give IC50 of CC(C)c1cnn2ccc(-c3ccnc(Nc4ccc(N5CCC(N(C)C)CC5)cn4)n3)cc12 (single isomer, unassigned) [Synthetic Example 161]
[reply] < 10 nM

[ask] Name the value of IC50 reported for CC(C)c1cnn2c(C#N)cc(-c3ccnc(Nc4ccc(N5CCNCC5=O)cn4)n3)cc12 when tested on CDK4/CyclinD1 (Homo sapiens, UniProt P11802).
[reply] 10 to 100 nM

[ask] State the measured IC50 (CDK4/CyclinD1 (Homo sapiens, UniProt P11802)) of CC(C)(C)c1cnn2ccc(-c3ccnc(Nc4ccc(N5CCCC(N)C5=O)cn4)n3)cc12 (stereo not shown)
[reply] < 10 nM

[ask] State measured IC50 of the molecule CC(C)c1cnn2ccc(-c3nc(Nc4ccc(N5CCNCCC5=O)cn4)ncc3F)cc12 with CDK4/CyclinD1 (Homo sapiens, UniProt P11802).
[reply] < 10 nM

[ask] Provide measured IC50 on CDK4/CyclinD1 (Homo sapiens, UniProt P11802) for CNC1CCCN(c2ccc(Nc3nccc(-c4ccn5ncc(C(C)C)c5c4)n3)c(F)c2)C1=O (stereo not shown) please.
[reply] < 10 nM
